Molecular target: human EP4 receptor (Homo sapiens (Human))
Sequence (P35408 whole entry): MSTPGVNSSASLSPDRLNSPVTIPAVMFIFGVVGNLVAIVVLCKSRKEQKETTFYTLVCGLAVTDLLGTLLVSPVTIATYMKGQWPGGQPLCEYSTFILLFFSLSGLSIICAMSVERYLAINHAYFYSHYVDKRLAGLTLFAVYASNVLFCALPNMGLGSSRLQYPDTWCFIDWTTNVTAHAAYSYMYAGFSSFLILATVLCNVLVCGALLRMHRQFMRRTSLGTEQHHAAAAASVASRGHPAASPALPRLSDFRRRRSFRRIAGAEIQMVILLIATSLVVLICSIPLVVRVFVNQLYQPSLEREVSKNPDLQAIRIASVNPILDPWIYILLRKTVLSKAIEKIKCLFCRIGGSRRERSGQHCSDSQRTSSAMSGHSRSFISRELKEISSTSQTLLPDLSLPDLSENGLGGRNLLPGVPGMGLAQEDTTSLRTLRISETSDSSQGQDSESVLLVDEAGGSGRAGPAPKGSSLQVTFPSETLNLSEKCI
Experiment: EP4 antagonistic activity measurement experiment using prostanoid receptor subtype expressing cells
Conditions: CHO cells expressing human EP4 receptor; inhibition of cAMP production by PGE2 10 nM; 30 minutes at room temperature
Description: CHO cells expressing human EP4 receptor subtypes were prepared according to the methods of Nishigaki et al. (Non-Patent Literature 4), and used for experiment. Cells cultured to subconfluent were detached, and suspended in an assay medium (MEM containing 1 mmol/L IBMX, 1% HSA) such that a concentration became 1×10^6 cells/mL. […] After 30 minutes of reaction at room temperature, the amount of cAMP in the cells was quantified according to the method in the descriptions of the cAMP assay kit (CISBIO). […]
Measured IC50 of individual entries
Just the number in nM, nothing appended.

INSERT INTO measurements (compound, unit_of_measurement, reported_measurement) VALUES
  ('CNC(=O)c1ccc2c(C)cn(C(C)C(=O)Nc3cc(Cn4cc5c(n4)CCC5)ccc3CCCC(=O)O)c2c1 (stereo not drawn)', 'nM', 5.5),
  ('CNC(=O)c1ccc2c(C3CC3)cn(C(C)C(=O)Nc3cc(C#N)ccc3CCCC(=O)O)c2c1 (single isomer, unassigned)', 'nM', 6.5),
  ('Cc1cnn(Cc2ccc(CCCC(=O)O)c(NC(=O)C(C)n3cc(C)c4cc(C(=O)NC(C)C)ccc43)c2)c1 (single isomer, unassigned)', 'nM', 3.3),
  ('COCCNC(=O)c1ccc2c(C)cn(C(C)C(=O)Nc3cc(C#N)ccc3CCCC(=O)O)c2c1 (single isomer, unassigned)', 'nM', 1.9),
  ('CCNC(=O)c1ccc2c(C)cn(C(C)C(=O)Nc3cc(Cn4cc(C)cn4)ccc3CCCC(=O)O)c2c1 (single isomer, unassigned)', 'nM', 0.9);

Consider the record given below.
The compound listed as Cc1cnn(Cc2ccc(CCCC(=O)O)c(NC(=O)C(C)n3cc(C)c4cc(C(=O)N5CCCC5)ccc43)c2)c1 (single isomer, unassigned) has a reported IC50 of 8.6
